System: Escherichia coli TOP10;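 further: peptides expressed intracellularly from a pBAD plasmid library in pooled LB shake-flask culture, induced with 0.3% L-arabinose, DNA abundance read by NGS, three biological replicates, DESeq2 with apeglm shrinkage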
Assay: shrunken log2 fold change of peptide-encoding DNA abundance (4.5 h post-induction vs induction); higher = less antimicrobial activity (less host growth inhibition)
Conditions: time post-induction: 4.5 h; library: site-saturation at positions 5, 18, 19, 20
EXPERIMENTAL_READOUT: shrunken log2 fold change

Recorded shrunken log2 fold change, per entry:
>>> result("RRIRFRPPRLPRPRPRPKETPRP")
-0.0433
>>> result("RRIRPRPPRLPRPRPRPGNHPRP")
-0.16

Problem: Need shrunken log2 fold change, item "RRIRFRPPRLPRPRPRPSYFPRP"
Solution: -0.479

Problem: Query (sequence): "RRIRNRPPRLPRPRPRPYCYPRP" ; field requested: shrunken log2 fold change
Solution: -1.44

Problem: Look up shrunken log2 fold change: "RRIRGRPPRLPRPRPRPMFVPRP"
Solution: 0.39

Problem: Looking for the measured shrunken log2 fold change of "RRIRARPPRLPRPRPRPHKNPRP" , can you help?
Solution: 0.0543

Problem: What shrunken log2 fold change value was documented for this sequence, "RRIRFRPPRLPRPRPRPAVRPRP" ?
Solution: -0.0627

Problem: Look up shrunken log2 fold change for this sequence: "RRIRWRPPRLPRPRPRPHIIPRP"
Solution: -0.441

Problem: What value of shrunken log2 fold change has been reported for the following sequence? "RRIRERPPRLPRPRPRPCGAPRP"
Solution: 0.469

Problem: I would be grateful if you could share the reported shrunken log2 fold change for "RRIRTRPPRLPRPRPRPVFGPRP" .
Solution: 0.227

Problem: Quick one: shrunken log2 fold change for "RRIRFRPPRLPRPRPRPAYSPRP" ?
Solution: 0.00204

Problem: Given "RRIRRRPPRLPRPRPRPNASPRP" , state its recorded shrunken log2 fold change.
Solution: -0.0114

Problem: I am curious: what shrunken log2 fold change value has been reported for "RRIRARPPRLPRPRPRPTGCPRP" ?
Solution: 0.458

Problem: Fill blank: measured shrunken log2 fold change of the sequence "RRIRHRPPRLPRPRPRPASMPRP" is ____.
Solution: 0.0822

Problem: Could you tell me which shrunken log2 fold change is on file for "RRIRARPPRLPRPRPRPTCHPRP" ?
Solution: 0.427
